Recorded measurements of apparent KD of MS2 coat protein, one per entry
Test system: MS2 coat protein
EXPERIMENT_NOTES: apparent KD of MS2 coat protein; designed switch direction (-1 OFF switch, 1 ON switch): -1; higher = weaker reporter binding
TEST_PARAMETERS: input ligand: none

BIOPOLYMER_SEQUENCE	apparent KD of MS2 coat protein (nM)
UUGUUGUGUGUAGGAUAUGCGUGUUAUUAUUAUGCAGAAGGACAUGAGGAUCACCCAUGUGUAUUAUUAUUAUAUAUUAUAUAU [Title] (Eterna round: R96, puzzle: Exclusion NG 1)	23.5
CGUUCUCACGUCAGGAUAUAGGACUUGCACGUGUGCUAGAAGGGACAUGAGGAUCACCCAUGUAAAUAAGAAAG [Quonbi] (Eterna round: R97, puzzle: Brourd's mod of Exclusion 4)	27.1
CCAUAAAGGAAGGAUAUGCUAGACGAAAGUCUAGCAGAAGGUCCUACAUGAGGAUCACCCAUGUGGCCUCAUGG [Mat - Exclusion 6 - Eli Mod - D49] (Eterna round: R97, puzzle: Exclusion 6)	198
GCCUUAUCCGUCAGGAUAUACAGCCGCUCCCUGUUGUAGAAGGGACAUGAGGAUCACCCAUGUACGUACCACUG [alecazam7] (Eterna round: R97, puzzle: Brourd's mod of Exclusion 4)	22.6
UCUGCCGCCGUGAGGAUAUGCCCGCGCGCCCGCGGGCAGAAGGCACAUGAGGAUCACCCAUGUCCCGCGGCAUU [salish99_bmx4_r4_128] (Eterna round: R97, puzzle: Brourd's mod of Exclusion 4)	17.4
AGCCUCUAAGGAUAUACAUGAGGAUCACCCAUGUACUUAGAAGGGAAACCUUCUAUAUGUAGAAGGUAGAAGCA [Exclusion 3 S1] (Eterna round: R97, puzzle: Exclusion 3)	12.7
GGCAAACAUGAGGAUCACCCAUGUCAGGAUAUUAGGCGAUCGUCGAUAGACGAUAGCCUGAGAAGGGACAUGCC [Mat - Exclusion 1 - Eli Mod - D16] (Eterna round: R97, puzzle: Exclusion 1)	85.2
UCAACGCAAGGAUAUACUUGCGGUGAUGUUCGAAUUCUUCUACUUGAGGAUCACCCAAGUAGAAGGUGCGGUGA [jl-ex2.4.64 ViennaUCT mod] (Eterna round: R97, puzzle: Exclusion 2)	13.1
AGUACUAACACGGGAGUGUUAGUACAAUAAGCUUGUGAAACAUGAGGAUCACCCAUGUCCUCAUAAGCUCGUCUUAU [salish99_TOv2_r3_060] (Eterna round: R96, puzzle: Sensor v3, turn-off variant 2)	17.4

###

System: MS2 coat protein
EXPERIMENT_NOTES: apparent KD of MS2 coat protein; designed switch direction (-1 OFF switch, 1 ON switch): -1; higher = weaker reporter binding
TEST_PARAMETERS: input ligand: FMN 200 uM
Listing: apparent KD of MS2 coat protein of selected sequences

BIOPOLYMER_SEQUENCE	TARGET_OF_ASSAY	apparent KD of MS2 coat protein (µM)
ACAUGAGGAUCACCCAUGUCGAGUACAUGAGGAUCACCCAUGUAGGAUAUGGUUCGCUUUGCGUGCUAGAAGGAUAUGUGUUGC [salish99_ExNG3_r04_509] (Eterna round: R96, puzzle: Exclusion NG 3)	MS2 coat protein	0.351
GCACGGUUGGUAGGAUAUCCUUGCGAUUAGCAAGGAGAAGGACCACAUGAGGAUCACCCAUGUACCUCAAUUAUCCUUCCGUGC [Eli exng1 - 025] (Eterna round: R96, puzzle: Exclusion NG 1)	MS2 coat protein	0.0137
AUAAAUCAUGUAGGAUAUGCGUGGAGAAGCUAUGCAGAAGGACAUGAGGAUCACCCAUGUGCUUCCGUCUGCGUACAGACGGAA [Mat - Exclusion NG 1 - Mod of JL - D36] (Eterna round: R96, puzzle: Exclusion NG 1)	MS2 coat protein	0.038
CCGGAACAUGAGGAUCACCCAUGUCAGGAUAUGAAUAAAUCGUCGAAAGACGAUAAUCUCAGAAGGGACACCGG [Eli 4.28] (Eterna round: R97, puzzle: Exclusion 1)	MS2 coat protein	0.0227
CGGGUGAAUAGAGGAUAUAGUACAUGAGGAUCACCCAUGUAAUAAAUGAGAAUUUCGAAUGUAAUCUAGAAGGCUAGAAAACCC [Ostracism 99 - Jieux - Exclusion NG 2] (Eterna round: R96, puzzle: Exclusion NG 2)	MS2 coat protein	0.367
